- System: Pseudomonas aeruginosa ATCC 9027
- Type: cell-based
- Recorded conditions: Mueller Hinton Broth; complete growth inhibition not achieved
Ends that are not written are not given here.
Quantity: peptide concentration giving 75% inhibition of growth (value in parentheses)

Worked examples follow.
Substance	Study system	Recorded value
YIVYKIRSARKRWKALK-OH [BOL-46, YIVYKIRSARKRWKALK]	Pseudomonas aeruginosa ATCC 9027	(100) μg/ml
YIVYKIRSAKKRKKALK-OH [BOL-56, YIVYKIRSAKKRKKALK]	Pseudomonas aeruginosa ATCC 9027	(200) μg/ml
YIVYKIRWAWKRRKALK-OH [BOL-48, YIVYKIRWAWKRRKALK]	Pseudomonas aeruginosa ATCC 9027	6.5 µg/mL
YIVRKIRSAWKRRKALK-OH [BOL-80, YIVRKIRSAWKRRKALK]	Pseudomonas aeruginosa ATCC 9027	(18.75) μg/ml
YIVYKIRSAWKRWK-OH [BOL-70, YIVYKIRSAWKRWK]	Pseudomonas aeruginosa ATCC 9027	(100) μg/ml
YIVYKIRWAWKRSKAL [BOL-93, YIVYKIRWAWKRSKAL]	Pseudomonas aeruginosa ATCC 9027	(37.5) μg/ml
YIVYKIRSAWKRRKALK-OH [BOL-44, YIVYKIRSAWKRRKALK]	Pseudomonas aeruginosa ATCC 9027	(75) μg/ml
YIVYKIRWAWKRSKALK-OH [BOL-47, YIVYKIRWAWKRSKALK]	Pseudomonas aeruginosa ATCC 9027	(25) μg/ml
YIVYKIRSAWKRWKALK-OH [BOL-45, YIVYKIRSAWKRWKALK]	Pseudomonas aeruginosa ATCC 9027	(25) μg/ml
YIVYKIRSAKKRWKALK-OH [BOL-57, YIVYKIRSAKKRWKALK]	Pseudomonas aeruginosa ATCC 9027	(200) μg/ml

The value of peptide concentration giving 75% inhibition of growth (value in parentheses) measured for the substance YIVYKIRRARKRRKALK-OH [BOL-52, YIVYKIRRARKRRKALK] turned out to be (37.5) μg/ml

The value of peptide concentration giving 75% inhibition of growth (value in parentheses) measured for the substance YIVYKIRSARKRWK-OH [BOL-71, YIVYKIRSARKRWK] turned out to be (200) μg/ml

The value of peptide concentration giving 75% inhibition of growth (value in parentheses) measured for the substance YIVYKIRWARKRWKALK-OH [BOL-51, YIVYKIRWARKRWKALK] turned out to be 25 µg/mL

The value of peptide concentration giving 75% inhibition of growth (value in parentheses) measured for the substance KYIVYKIRSARKRRKALK-OH [BOL-84, KYIVYKIRSARKRRKALK] turned out to be (75) μg/ml

The value of peptide concentration giving 75% inhibition of growth (value in parentheses) measured for the substance KYIVYKIRSAWKRSKALK-OH [BOL-85, KYIVYKIRSAWKRSKALK] turned out to be (37.5) μg/ml

====

- Test system: Escherichia coli ATCC 25922
- Format: cell-based
- Recorded conditions: ATCC 25922, 2 h
Ends that are not written are not given here.
Where minimum inhibition concentration equals or exceeds 50 mg/L, the correct label is y; where it does not, the label is n.

Answer whether minimum inhibition concentration of YIVYKIRWARKRRKAL [BOL-72, YIVYKIRWARKRRKAL] is greater than or equal to 50 mg/L.
y

Answer whether minimum inhibition concentration of YIVYKIRWAWKRKKALK-OH [BOL-61, YIVYKIRWAWKRKKALK] is greater than or equal to 50 mg/L.
n

Answer whether minimum inhibition concentration of YIVYKIRWAWKRRKALK-OH [BOL-48, YIVYKIRWAWKRRKALK] is greater than or equal to 50 mg/L.
n

Answer whether minimum inhibition concentration of YIVYKIRSARKRSKALK-OH [BOL-6, YIVYKIRSARKRSKALK] is greater than or equal to 50 mg/L.
n

Answer whether minimum inhibition concentration of YIVWKIRSADKRSKALK-OH [BOL-25, YIVWKIRSADKRSKALK] is greater than or equal to 50 mg/L.
y

Answer whether minimum inhibition concentration of YIVYKIRWTWKRSKAL [BOL-97, YIVYKIRWTWKRSKAL] is greater than or equal to 50 mg/L.
n

Answer whether minimum inhibition concentration of YIVYKIRWAKKRKKALK-OH [BOL-59, YIVYKIRWAKKRKKALK] is greater than or equal to 50 mg/L.
y

Answer whether minimum inhibition concentration of YIVRKIRSARKRRKALK-OH [BOL-83, YIVRKIRSARKRRKALK] is greater than or equal to 50 mg/L.
y

====

- Tested on: Staphylococcus aureus ATCC 25923
- Type: cell-based
- Recorded conditions: ATCC 25923, 2 h
Ends that are not written are not given here.
Kindly supply the reported minimum inhibition concentration values for the records listed here.
# number only, unit µg/mL dropped from output

The value of minimum inhibition concentration measured for the substance YIVYKIRRARKRRKALK-OH [BOL-52, YIVYKIRRARKRRKALK] turned out to be 300

The value of minimum inhibition concentration measured for the substance YIVYKIRWAWKRRKALK-OH [BOL-48, YIVYKIRWAWKRRKALK] turned out to be 9.375

The value of minimum inhibition concentration measured for the substance YIRYKRRSADKRRKALK-OH [BOL-16, YIRYKRRSADKRRKALK] turned out to be 100

The value of minimum inhibition concentration measured for the substance YIVYKIRWARKRSKALK-OH [BOL-49, YIVYKIRWARKRSKALK] turned out to be 75

====

- Tested on: Escherichia coli ATCC 25922
- Assay type: cell-based
- Recorded conditions: ATCC 25922, 2 h
Ends that are not written are not given here.
Quantity: minimum inhibition concentration (µg/mL)
# number only, unit µg/mL dropped from output

The value of minimum inhibition concentration measured for the substance YIVYKIRSADKRWKALK-OH [BOL-30, YIVYKIRSADKRWKALK] turned out to be 150

The value of minimum inhibition concentration measured for the substance YIVWKIRSARKRRKALK-OH [BOL-74, YIVWKIRSARKRRKALK] turned out to be 300

The value of minimum inhibition concentration measured for the substance YIVWKIRSAWKRSKALK-OH [BOL-75, YIVWKIRSAWKRSKALK] turned out to be 75

====

- Tested on: Staphylococcus aureus ATCC 25923
- Assay type: cell-based
- Recorded conditions: ATCC 25923, 2 h
Ends that are not written are not given here.
Quantity: minimum inhibition concentration (µg/mL)
# number only, unit µg/mL dropped from output

The value of minimum inhibition concentration measured for the substance KYIVYKIRWARKRRKALK-OH [BOL-87, KYIVYKIRWARKRRKALK] turned out to be 9.375

The value of minimum inhibition concentration measured for the substance YIVYKIRWTWKRSKAL [BOL-97, YIVYKIRWTWKRSKAL] turned out to be 12.5

The value of minimum inhibition concentration measured for the substance YIVYKIRRAWKRRKALK-OH [BOL-54, YIVYKIRRAWKRRKALK] turned out to be 200

The value of minimum inhibition concentration measured for the substance YIVYKIRFAFKRRKAL [BOL-92, YIVYKIRFAFKRRKAL] turned out to be 18.75

====

- Tested on: Candida albicans ATCC 10231
- Assay type: cell-based
- Recorded conditions: ATCC 10231, 2 h
Ends that are not written are not given here.
Quantity: minimum inhibition concentration (µg/mL)
# number only, unit µg/mL dropped from output

The value of minimum inhibition concentration measured for the substance YIVYKIRWARKRRKAL [BOL-72, YIVYKIRWARKRRKAL] turned out to be 18.75

The value of minimum inhibition concentration measured for the substance YIVYKIRRAWKRWKALK-OH [BOL-55, YIVYKIRRAWKRWKALK] turned out to be 9.375

The value of minimum inhibition concentration measured for the substance YIVYKIRWARKRRKALK-OH [BOL-50, YIVYKIRWARKRRKALK] turned out to be 9.375

The value of minimum inhibition concentration measured for the substance YIVYKIRSARKRWKALK-OH [BOL-46, YIVYKIRSARKRWKALK] turned out to be 150

The value of minimum inhibition concentration measured for the substance YIVWKIRSAWKRWKALK-OH [BOL-82, YIVWKIRSAWKRWKALK] turned out to be 9.375

The value of minimum inhibition concentration measured for the substance YIVWKIRSARKRWKALK-OH [BOL-81, YIVWKIRSARKRWKALK] turned out to be 75

The value of minimum inhibition concentration measured for the substance KYIVYKIRSARKRRKALK-OH [BOL-84, KYIVYKIRSARKRRKALK] turned out to be 37.5

The value of minimum inhibition concentration measured for the substance YIVYKIRSAWKRWK-OH [BOL-70, YIVYKIRSAWKRWK] turned out to be 37.5

The value of minimum inhibition concentration measured for the substance YIVYKIRWAWKRSKALK-OH [BOL-47, YIVYKIRWAWKRSKALK] turned out to be 18.75

The value of minimum inhibition concentration measured for the substance YIVRKIRSAWKRRKALK-OH [BOL-80, YIVRKIRSAWKRRKALK] turned out to be 37.5
